System: Colo320 cells
assay-overview: MTT antiproliferative assay, resistant cells
Format: cell-based, human
measurement-context: IC50 resistant Colo320 / IC50 sensitive Colo205
# RR (relative resistance ratio) B/A per record follows
attribute-measured: RR (relative resistance ratio) B/A

INSERT INTO measurements (molecule, assayed_target, inequality_sign, observed_value) VALUES
  ('O=C(NCCc1ccccc1)OC1C=C2CCN3Cc4cc5c(cc4C(C1OC(=O)NCCc1ccccc1)C23)OCO5 (centres unmarked) [Compound 9]', 'Colo320 cells', '<', 0.10),
  ('O=C(NCCc1ccc(Cl)cc1)OC1C=C2CCN3Cc4cc5c(cc4C(C1OC(=O)NCCc1ccc(Cl)cc1)C23)OCO5 (centres unmarked) [Compound 25]', 'Colo320 cells', '=', 0.065),
  ('CC(C)(C)c1ccc(CNC(=O)OC2C=C3CCN4Cc5cc6c(cc5C(C2O)C34)OCO6)cc1 (centres unmarked) [Compound 19]', 'Colo320 cells', '=', 0.28),
  ('O=C(NCc1ccc(Cl)cc1)OC1C=C2CCN3Cc4cc5c(cc4C(C1O)C23)OCO5 (centres unmarked) [Compound 2, Lycorine 2-yl (4-chlorobenzyl)carbamate]', 'Colo320 cells', '=', 2.09),
  ('O[C@H]1[C@H]2c3cc4c(cc3CN3CCC(=C[C@@H]1O)[C@H]23)OCO4 [Compound 1, lycorine]', 'Colo320 cells', '=', 0.87);

* * *

# SI (selectivity index) C/B per record follows
System: Colo320 cells
assay-overview: MTT antiproliferative assay, resistant cells
Format: cell-based, human
measurement-context: IC50 MRC-5 / IC50 Colo320
attribute-measured: SI (selectivity index) C/B

INSERT INTO results (molecule, attribute_measured, inequality_sign, observed_value) VALUES
  ('O=C(OC1C=C2CCN3Cc4cc5c(cc4C(C1OC(=O)N1CCCCC1)C23)OCO5)N1CCCCC1 (stereo not drawn) [Compound 16]', 'SI (selectivity index) C/B', '=', 2.22),
  ('O=C(NCCc1ccccc1)OC1C=C2CCN3Cc4cc5c(cc4C(C1OC(=O)NCCc1ccccc1)C23)OCO5 (stereo not drawn) [Compound 9]', 'SI (selectivity index) C/B', '=', 0.43),
  ('Cc1ccc(CNC(=O)OC2C=C3CCN4Cc5cc6c(cc5C(C2OC(=O)NCc2ccc(C)cc2)C34)OCO6)cc1 (stereo not drawn) [Compound 5]', 'SI (selectivity index) C/B', '=', 0.17),
  ('O[C@H]1[C@H]2c3cc4c(cc3CN3CCC(=C[C@@H]1O)[C@H]23)OCO4 [Compound 1, lycorine]', 'SI (selectivity index) C/B', '=', 3.26),
  ('O=C(NCCc1ccc(Cl)cc1)OC1C=C2CCN3Cc4cc5c(cc4C(C1O)C23)OCO5 (stereo not drawn) [Compound 26]', 'SI (selectivity index) C/B', '=', 1.37),
  ('O=C(NCCc1ccc(Cl)cc1)OC1C=C2CCN3Cc4cc5c(cc4C(C1OC(=O)NCCc1ccc(Cl)cc1)C23)OCO5 (stereo not drawn) [Compound 25]', 'SI (selectivity index) C/B', '=', 1.51),
  ('O=C(NCCc1ccc(F)cc1)OC1C=C2CCN3Cc4cc5c(cc4C(C1OC(=O)NCCc1ccc(F)cc1)C23)OCO5 (stereo not drawn) [Compound 23]', 'SI (selectivity index) C/B', '<', 0.037),
  ('CC(C)(C)c1ccc(CNC(=O)OC2C=C3CCN4Cc5cc6c(cc5C(C2O)C34)OCO6)cc1 (stereo not drawn) [Compound 19]', 'SI (selectivity index) C/B', '=', 5.66),
  ('O=C(NCc1ccc(Cl)cc1)OC1C=C2CCN3Cc4cc5c(cc4C(C1O)C23)OCO5 (stereo not drawn) [Compound 2, Lycorine 2-yl (4-chlorobenzyl)carbamate]', 'SI (selectivity index) C/B', '=', 1.44);
